As an illustration, consider measured AC50 for compounds on UniProt P08684.
Sequence (P08684 whole entry): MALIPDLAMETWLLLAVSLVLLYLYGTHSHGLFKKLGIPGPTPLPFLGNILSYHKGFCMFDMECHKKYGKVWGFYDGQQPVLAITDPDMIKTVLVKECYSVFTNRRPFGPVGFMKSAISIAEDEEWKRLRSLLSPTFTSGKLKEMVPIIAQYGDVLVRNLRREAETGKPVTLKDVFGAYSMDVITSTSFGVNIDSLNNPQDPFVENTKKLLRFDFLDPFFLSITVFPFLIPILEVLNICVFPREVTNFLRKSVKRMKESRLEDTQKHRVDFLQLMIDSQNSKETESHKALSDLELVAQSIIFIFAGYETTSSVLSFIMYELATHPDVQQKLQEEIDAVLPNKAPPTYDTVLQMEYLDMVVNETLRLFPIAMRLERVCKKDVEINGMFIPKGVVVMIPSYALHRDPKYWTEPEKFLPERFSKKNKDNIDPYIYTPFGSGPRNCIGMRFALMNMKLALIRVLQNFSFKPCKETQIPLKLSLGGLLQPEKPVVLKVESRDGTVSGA
quantity_kind: AC50

[[record]]
compound = "Cc1ccnc(N2C(=O)C3C4CC(C(Br)C4Br)C3C2=O)c1 (stereo unspecified)"
reported = "25.1 µM (inconclusive)"

[[record]]
compound = "O=C(Oc1ccc(C(=S)N2CCOCC2)cc1Br)c1cc(Cl)ccc1Cl"
reported = "12.6 µM (inconclusive)"

[[record]]
compound = "N#Cc1sc2nc(-c3cccs3)cc(-c3ccc(Cl)cc3)c2c1N"
reported = "1.41 µM (inconclusive)"

[[record]]
compound = "COc1ccc(/C=C/C(=O)Nc2ccccc2C(=O)N2CCCC2)cc1"
reported = "1 µM (inconclusive)"

[[record]]
compound = "CCNc1ncc2nc(-c3cc(F)cc(F)c3)c(=O)n(CCc3ccccc3)c2n1"
reported = "12.6 µM (inconclusive)"

[[record]]
compound = "CC(C)NC(=O)C(C)n1cccc1C(=O)c1ccccc1 (stereo unspecified)"
reported = "15.8 µM (inconclusive)"

[[record]]
compound = "CN(C)c1nc(-c2ccoc2)nc2ccccc12"
reported = "25.1 µM (inconclusive)"

[[record]]
compound = "Cc1ccc(/C=N/NC(=O)C2CCN(Cc3ccc(F)cc3Cl)CC2)o1"
reported = "5.01 µM (inconclusive)"

[[record]]
compound = "NC(CC(=O)Nc1cc(C(F)(F)F)ccc1Cl)=NO"
reported = "3.98 µM (inconclusive)"

[[record]]
compound = "O=C(N/N=C/c1ccc(Br)s1)c1ccccc1[N+](=O)[O-]"
reported = "17.8 µM (inconclusive)"

[[record]]
compound = "COc1ccc(C2C(C(=O)c3ccc(Cl)cc3)=C(O)C(=O)N2CCN2CCOCC2)c(OC)c1 (stereo unspecified)"
reported = "20 µM (inconclusive)"


* * *

A collection of compounds and their measured AC50
- measured_target: Cytochrome P450 2C9 (Homo sapiens, UniProt P11712)
- Sequence (P11712 whole entry): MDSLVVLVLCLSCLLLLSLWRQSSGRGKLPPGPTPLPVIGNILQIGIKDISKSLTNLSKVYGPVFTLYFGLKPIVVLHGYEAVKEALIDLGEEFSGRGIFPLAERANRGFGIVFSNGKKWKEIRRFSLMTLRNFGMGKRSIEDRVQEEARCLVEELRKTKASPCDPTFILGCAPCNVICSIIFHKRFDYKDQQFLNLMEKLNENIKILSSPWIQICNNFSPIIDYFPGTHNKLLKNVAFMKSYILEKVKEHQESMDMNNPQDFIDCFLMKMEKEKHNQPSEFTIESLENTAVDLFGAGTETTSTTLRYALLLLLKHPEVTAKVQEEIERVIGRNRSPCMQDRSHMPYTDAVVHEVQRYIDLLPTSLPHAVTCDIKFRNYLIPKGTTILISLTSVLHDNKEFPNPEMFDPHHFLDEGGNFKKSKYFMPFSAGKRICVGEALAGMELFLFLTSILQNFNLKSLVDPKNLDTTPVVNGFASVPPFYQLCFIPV
- stated_conditions: Potency
quantity_kind: AC50

[[record]]
compound = "C=CCOC(=O)C(C(C)=O)C(NC(=O)OC)c1cccc(F)c1 (stereo not given)"
reported = "1 µM (inconclusive)"

[[record]]
compound = "Cc1nc2sccn2c(=O)c1CCN1CCC(=C(c2ccc(F)cc2)c2ccc(F)cc2)CC1"
reported = "25.1 µM (inconclusive)"

[[record]]
compound = "COc1cc2ccc(=O)oc2c(O)c1OCC=C(C)C"
reported = "31.6 µM (inconclusive)"

[[record]]
compound = "CC(=O)[C@H]1[C@H]2[C@H](C(=O)[C@@H]3OC[C@H]2O3)[C@@H]2c3ccccc3C=CN12"
reported = "31.6 µM (inconclusive)"

[[record]]
compound = "NCCC[C@@H](CC(=O)N[C@@H]1CCCC[C@H]1C(=O)N[C@H](CC(=O)N[C@@H](CCC(=O)O)CC(=O)O)Cc1c[nH]c2ccccc12)NC(=O)C[C@H](CO)NC(=O)[C@@H]1CCCC[C@H]1N"
reported = "31.6 µM (inconclusive)"


* * *

Reported IC50 values for the following compounds.
- measured_target: UniProt Q9BQF6
- Sequence (Q9BQF6 whole entry): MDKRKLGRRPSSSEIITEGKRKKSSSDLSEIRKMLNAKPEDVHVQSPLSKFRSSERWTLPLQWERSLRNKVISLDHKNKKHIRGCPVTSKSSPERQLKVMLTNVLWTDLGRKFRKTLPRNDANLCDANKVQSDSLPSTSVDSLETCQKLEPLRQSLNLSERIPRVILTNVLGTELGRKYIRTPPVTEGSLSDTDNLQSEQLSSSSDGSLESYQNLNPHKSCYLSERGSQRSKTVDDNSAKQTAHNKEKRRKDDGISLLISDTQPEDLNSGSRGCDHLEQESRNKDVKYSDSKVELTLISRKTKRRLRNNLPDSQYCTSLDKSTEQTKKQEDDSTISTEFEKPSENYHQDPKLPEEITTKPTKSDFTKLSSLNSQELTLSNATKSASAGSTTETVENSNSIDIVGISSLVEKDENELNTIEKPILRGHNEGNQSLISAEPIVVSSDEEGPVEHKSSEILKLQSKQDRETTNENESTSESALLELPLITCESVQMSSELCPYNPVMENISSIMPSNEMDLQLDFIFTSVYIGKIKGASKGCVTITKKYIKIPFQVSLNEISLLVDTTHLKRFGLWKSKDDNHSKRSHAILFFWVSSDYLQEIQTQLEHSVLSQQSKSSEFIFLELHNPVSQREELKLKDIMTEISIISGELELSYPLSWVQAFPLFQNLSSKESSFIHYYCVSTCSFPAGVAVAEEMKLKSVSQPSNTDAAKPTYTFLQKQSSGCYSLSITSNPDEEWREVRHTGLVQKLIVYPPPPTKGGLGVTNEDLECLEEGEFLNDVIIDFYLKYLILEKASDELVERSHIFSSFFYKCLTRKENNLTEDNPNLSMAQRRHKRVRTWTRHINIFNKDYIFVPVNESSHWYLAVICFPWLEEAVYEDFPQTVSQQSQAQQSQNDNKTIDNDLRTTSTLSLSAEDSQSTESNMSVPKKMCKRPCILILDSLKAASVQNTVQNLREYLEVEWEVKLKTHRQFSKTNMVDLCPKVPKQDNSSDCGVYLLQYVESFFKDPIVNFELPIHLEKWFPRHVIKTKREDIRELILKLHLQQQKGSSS
- Assay type: functional
Calls of active or inactive are those of the source.
quantity_kind: IC50

[[record]]
smiles_text = "COc1ccc(C(N)=NOC(=O)Cc2cccs2)cc1"
quantity_kind = "IC50"
reported = "11.3 µM (active)"

[[record]]
smiles_text = "COc1ccc(C(=O)COC(=O)c2n[nH]c3ccccc23)c(OC)c1"
quantity_kind = "IC50"
reported = "8.72 µM (active)"

[[record]]
smiles_text = "CCSc1nsc(NC(=O)Nc2ccc(F)cc2F)n1"
quantity_kind = "IC50"
reported = "13.7 µM (active)"

[[record]]
smiles_text = "COC(=O)Nc1nnc(-c2ccccc2Cl)s1"
quantity_kind = "IC50"
reported = "5.89 µM (active)"

